Test: Cytotoxicity determination (CCK-8, without addition of virus)
Format: cell-based
Conditions: human, HEp-2 cells (uninfected), no virus, Table C = greater than 100 μM, Table D = equal to or less than 100 μM and greater than 10 μM
Here the recorded CC50 at 5 days is given for each entry.

Worked cases, CC50 at 5 days given:
compound	CC50 at 5 days
COc1cc(C(=O)NCC(O)(c2cc3c(c(-c4ccncc4)n2)OCC3(C)N)C(F)(F)F)ccc1OCCO (stereo not drawn)	> 100 µM
C[C@@]1(N)CNc2c1cc([C@](O)(CNC(=O)c1cc(OCCO)c3ncccc3c1)C(F)(F)F)nc2-c1ccc(F)cc1	10 to 100 µM

Q: Given C[C@@]1(N)CNc2c1cc([C@](O)(CNC(=O)c1ccc3c(c1)CC(=O)N3CCO)C(F)(F)F)nc2-c1ccc(F)cc1 , state its recorded CC50 at 5 days.
Ans: > 100 µM

Q: Given C[C@@]1(N)COc2c1cc([C@](O)(CNC(=O)c1ccc(OCCO)c(OC3CC3)c1)C(F)(F)F)nc2-c1ccc(F)cc1 , state its recorded CC50 at 5 days.
Ans: 10 to 100 µM

Q: Given C[C@@]1(N)COc2c1cc([C@](O)(CNC(=O)c1cc(OC(F)F)c3[nH]ccc3c1)C(F)(F)F)nc2-c1ccc(F)cc1 , state its recorded CC50 at 5 days.
Ans: 10 to 100 µM

Q: Given COc1cc(C(=O)NCC(O)(c2cc3c(c(-c4ccc(F)cc4)n2)OCCC3(N)C2CC2)C(F)(F)F)ccc1OC[C@@H](C)O (stereo partly drawn) , state its recorded CC50 at 5 days.
Ans: 10 to 100 µM

----------
Target: recombinant RSV complex (Human respiratory syncytial virus A)
Assay: RSV polymerase inhibition assay
Type: biochemical
Conditions: 10 nM recombinant RSV complex, 2 h at 30° C.; Table E = <1 μM, Table F = <50 μM; read-out: IC50
metric.name: IC50

compound	result
COc1cc(C(=O)NCC(O)(c2cc3c(c(-c4ccc(F)cc4)n2)OCC3(N)CO)C(F)(F)F)cc2cccnc12 (stereo not drawn) [Compound 1]	< 1000 nM

Q: Given COc1cc(C(=O)NCC(O)(c2cc3c(c(-c4ccc(F)cc4)n2)OCCC3(N)C2CC2)C(F)(F)F)ccc1OC[C@@H](C)O (stereo partly drawn) , state its recorded IC50.
Ans: < 1000 nM

Q: Given COc1cc(C(=O)NC[C@@](O)(c2cc3c(c(-c4ccc(F)cc4)n2)NC[C@@]3(C)N)C(F)(F)F)ccc1OCCO (single isomer, unassigned) , state its recorded IC50.
Ans: < 1000 nM

----------
Tested on: RSV subgenomic replicon 395 HeLa and APC126
Assay: RSV subgenomic replicon assay (Renilla luciferase)
Type: cell-based
Settings: human respiratory syncytial virus; RSV replicon cells (395 HeLa 7 days or APC126 3 days); Table G = less than 1 μM, Table H = equal to or higher than 1 μM and less than 50 μM
pEC50: −log10 of the molar value.
metric.name: pEC50

Worked cases, pEC50 given:
molecule	result
COc1cc(C(=O)NC[C@@](O)(c2cc3c(c(-c4ccc(F)cc4)n2)NC[C@@]3(C)N)C(F)(F)F)ncc1OCCO	> 6.00
COc1cc(C(=O)NCC(O)(c2cc3c(c(-c4ccncc4)n2)OCC3(C)N)C(F)(F)F)ccc1OCCO (centres unmarked)	4.30 to 6.00

Q: Given COc1cc(C(=O)NC[C@@](O)(c2cc3c(c(-c4ccc(F)cc4)n2)OC[C@@]3(C)N)C(F)(F)F)cc2ccc(C(C)O)nc12 (some centres unmarked) , state its recorded pEC50.
Ans: > 6.00

Q: Given CC1(N)COc2c1cc(C(O)(CNC(=O)c1ccc3c(c1)OCCN3CCO)C(F)(F)F)nc2-c1ccc(F)cc1 (centres unmarked) , state its recorded pEC50.
Ans: > 6.00

----------
Here the recorded CC50 at 5 days is given for each entry.
Test: Cytotoxicity determination (CCK-8, without addition of virus)
Assay type: cell-based
Conditions: human, HEp-2 cells (uninfected), no virus, Table C = greater than 100 μM, Table D = equal to or less than 100 μM and greater than 10 μM

Worked cases, CC50 at 5 days given:
compound	result
COc1ccc(C(=O)NCC(O)(c2cc3c(c(-c4ccc(F)cc4)n2)OCC3(C)N)C(F)(F)F)cc1OC1CC1 (stereo not drawn)	10 to 100 µM
CC1(N)COc2c1cc(C(O)(CNC(=O)c1cnc(OCCO)cc1O)C(F)(F)F)nc2-c1ccc(F)cc1 (stereo not drawn)	> 100 µM
C[C@@]1(N)CNc2c1cc([C@](O)(CNC(=O)c1ccc(OCCO)c(OC3CC3)c1)C(F)(F)F)nc2-c1ccc(F)cc1	10 to 100 µM
COc1cc(OCCO)cc(C(=O)NC[C@@](O)(c2cc3c(c(-c4ccc(F)cc4)n2)OC[C@@]3(C)N)C(F)(F)F)c1	10 to 100 µM
COc1cc(C(=O)NC[C@@](O)(c2cc3c(c(-c4ccc(F)cc4)n2)OC[C@]3(N)C2CC2)C(F)(F)F)ccc1OC[C@@H](C)O (single isomer, unassigned)	10 to 100 µM

Continue with the next compound.
Q: Given CC1(N)COc2c1cc(C(O)(CNC(=O)c1ccc(OC3CC3)c(OC3CC3)c1)C(F)(F)F)nc2-c1ccc(F)cc1 (stereo not drawn) , state its recorded CC50 at 5 days.
Ans: 10 to 100 µM

----------
Assay: Cytotoxicity determination (CCK-8, without addition of virus)
Assay type: cell-based
Settings: human, HEp-2 cells (uninfected), no virus, Table C = greater than 100 μM, Table D = equal to or less than 100 μM and greater than 10 μM
metric.name: CC50 at 5 days

molecule	metric.name	result
COc1nc(C(=O)NCC(O)(c2cc3c(c(-c4ccc(F)cc4)n2)OCC3(C)N)C(F)(F)F)cc2oc(=O)[nH]c12 (stereo not drawn) [Compound 48]	CC50 at 5 days	10 to 100 µM
COc1cc(C(=O)NCC(O)(c2cc(N3CCNCC3)cc(-c3ccc(F)cc3)n2)C(F)(F)F)ccc1OCCO (stereo not drawn) [Compound 138]	CC50 at 5 days	10 to 100 µM
C[C@@H](O)COc1cc(C(=O)NCC(O)(c2cc(C(C)(C)N)cc(-c3ccc(F)cc3)n2)C(F)(F)F)ccc1OC1CC1 (stereo partly drawn) [Compound 38]	CC50 at 5 days	10 to 100 µM

Q: Given COc1cc(C(=O)NC[C@@](O)(c2cc3c(c(-c4ccc(F)cc4)n2)OC[C@@]3(C)N)C(F)(F)F)cc2ccc(CO)nc12 [Compound 84] , state its recorded CC50 at 5 days.
Ans: 10 to 100 µM

Q: Given COc1cc(C(=O)NC[C@@](O)(c2cc3c(c(-c4ccc(F)cc4)n2)NC[C@@]3(C)N)C(F)(F)F)ccc1OCCO (single isomer, unassigned) [Compound 51] , state its recorded CC50 at 5 days.
Ans: > 100 µM

Q: Given COc1cc(C(=O)NCC(O)(c2cc3c(c(-c4ccc(F)cc4)n2)OCCC3(C)N)C(F)(F)F)ccc1OC[C@@H](C)O (stereo partly drawn) [Compound 103] , state its recorded CC50 at 5 days.
Ans: 10 to 100 µM

----------
Target: recombinant RSV complex (Human respiratory syncytial virus A, UniProt P28887)
Sequence (P28887 whole entry): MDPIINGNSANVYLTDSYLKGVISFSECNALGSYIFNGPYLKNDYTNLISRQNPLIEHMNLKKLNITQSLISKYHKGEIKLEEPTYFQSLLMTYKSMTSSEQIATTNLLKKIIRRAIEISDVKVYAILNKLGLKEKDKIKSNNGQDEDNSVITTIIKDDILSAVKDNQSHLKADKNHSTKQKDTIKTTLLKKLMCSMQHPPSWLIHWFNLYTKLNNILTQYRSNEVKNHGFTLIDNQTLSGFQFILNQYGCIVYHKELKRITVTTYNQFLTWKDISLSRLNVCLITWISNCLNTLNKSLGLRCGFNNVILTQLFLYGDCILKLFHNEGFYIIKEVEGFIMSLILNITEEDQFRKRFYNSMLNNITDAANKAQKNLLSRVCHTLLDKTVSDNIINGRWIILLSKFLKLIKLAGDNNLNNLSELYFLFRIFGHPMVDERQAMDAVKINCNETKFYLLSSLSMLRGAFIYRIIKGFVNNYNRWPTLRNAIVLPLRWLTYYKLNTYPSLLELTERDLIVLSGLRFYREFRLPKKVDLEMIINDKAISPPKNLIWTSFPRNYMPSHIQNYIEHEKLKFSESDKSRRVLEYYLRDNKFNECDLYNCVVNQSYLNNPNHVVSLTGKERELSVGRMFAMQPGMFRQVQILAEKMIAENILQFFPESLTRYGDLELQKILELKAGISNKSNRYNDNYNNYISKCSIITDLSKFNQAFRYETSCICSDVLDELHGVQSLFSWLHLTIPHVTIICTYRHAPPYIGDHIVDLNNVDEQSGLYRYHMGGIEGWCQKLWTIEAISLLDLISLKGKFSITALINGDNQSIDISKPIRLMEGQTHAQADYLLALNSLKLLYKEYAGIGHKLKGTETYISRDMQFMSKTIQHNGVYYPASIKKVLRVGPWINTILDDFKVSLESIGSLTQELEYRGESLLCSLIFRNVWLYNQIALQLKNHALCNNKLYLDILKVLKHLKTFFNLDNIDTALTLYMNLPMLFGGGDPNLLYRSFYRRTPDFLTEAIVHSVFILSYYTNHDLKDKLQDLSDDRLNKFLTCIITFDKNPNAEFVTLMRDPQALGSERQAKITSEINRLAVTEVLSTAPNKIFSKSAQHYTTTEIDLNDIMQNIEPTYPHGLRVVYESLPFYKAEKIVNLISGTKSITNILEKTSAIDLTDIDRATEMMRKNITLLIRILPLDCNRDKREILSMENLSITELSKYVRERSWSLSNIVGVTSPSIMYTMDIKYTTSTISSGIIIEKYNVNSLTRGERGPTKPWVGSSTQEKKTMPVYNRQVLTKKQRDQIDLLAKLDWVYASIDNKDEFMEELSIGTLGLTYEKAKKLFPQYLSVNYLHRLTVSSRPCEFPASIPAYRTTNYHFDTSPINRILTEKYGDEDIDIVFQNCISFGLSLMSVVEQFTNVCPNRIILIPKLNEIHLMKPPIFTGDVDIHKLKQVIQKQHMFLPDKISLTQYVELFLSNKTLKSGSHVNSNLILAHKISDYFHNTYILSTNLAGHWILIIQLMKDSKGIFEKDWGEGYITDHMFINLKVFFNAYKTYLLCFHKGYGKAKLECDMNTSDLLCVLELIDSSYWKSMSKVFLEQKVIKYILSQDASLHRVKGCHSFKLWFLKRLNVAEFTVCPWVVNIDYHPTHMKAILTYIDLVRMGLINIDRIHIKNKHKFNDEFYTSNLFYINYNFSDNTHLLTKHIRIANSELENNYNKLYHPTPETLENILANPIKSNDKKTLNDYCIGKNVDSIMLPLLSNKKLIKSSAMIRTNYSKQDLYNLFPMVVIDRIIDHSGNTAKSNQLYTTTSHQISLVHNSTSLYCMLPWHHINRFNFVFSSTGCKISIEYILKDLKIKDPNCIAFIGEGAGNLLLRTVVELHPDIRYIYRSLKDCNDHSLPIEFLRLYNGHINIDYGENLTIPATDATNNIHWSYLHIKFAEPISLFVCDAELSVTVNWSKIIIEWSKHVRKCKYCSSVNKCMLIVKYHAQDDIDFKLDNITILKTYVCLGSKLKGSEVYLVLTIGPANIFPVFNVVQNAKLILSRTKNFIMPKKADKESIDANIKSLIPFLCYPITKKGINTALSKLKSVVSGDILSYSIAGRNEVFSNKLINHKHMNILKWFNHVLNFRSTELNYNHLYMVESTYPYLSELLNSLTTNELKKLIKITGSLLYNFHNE
Sequence (P03421 whole entry, further chain): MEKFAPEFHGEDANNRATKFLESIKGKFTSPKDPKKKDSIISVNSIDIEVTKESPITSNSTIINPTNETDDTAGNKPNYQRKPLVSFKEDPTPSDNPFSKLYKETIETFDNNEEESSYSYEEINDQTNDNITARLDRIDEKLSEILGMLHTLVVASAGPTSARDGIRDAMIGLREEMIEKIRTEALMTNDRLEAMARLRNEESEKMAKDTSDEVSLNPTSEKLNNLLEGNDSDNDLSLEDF
Experiment: RSV polymerase inhibition assay
Format: biochemical
Conditions: 10 nM recombinant RSV complex, 2 h at 30° C.; Table E = <1 μM, Table F = <50 μM; read-out: IC50
metric.name: IC50

compound	IC50
COc1cc(C(=O)NCC(O)(c2nc(-c3ccc(F)cc3)c3ccccn23)C(F)(F)F)ccc1OCCO (stereo not shown)	< 50000 nM
CC1(N)COc2c1cc(C(O)(CNC(=O)c1cc3c(c(OC4CC4)c1)OC(=O)NC3)C(F)(F)F)nc2-c1ccc(F)cc1 (stereo not shown)	< 1000 nM

Continue with the next compound.
Q: Given C[C@@]1(N)COc2c1cc([C@](O)(CNC(=O)c1cc(OC(F)F)c3[nH]ccc3c1)C(F)(F)F)nc2-c1ccc(F)cc1 , state its recorded IC50.
Ans: < 1000 nM

----------
Molecular target: recombinant RSV complex (Human respiratory syncytial virus A, UniProt P28887)
Test: RSV polymerase inhibition assay
Type: biochemical
Settings: 10 nM recombinant RSV complex, 2 h at 30° C.; Table E = <1 μM, Table F = <50 μM; read-out: IC50
metric.name: IC50

Worked cases, IC50 given:
molecule	IC50
COc1nc(C(=O)NCC(O)(c2cc3c(c(-c4ccc(F)cc4)n2)OCC3(C)N)C(F)(F)F)cc2c1NC(=O)C2 (stereo not shown)	< 1000 nM
COc1cc(C(=O)NCC(O)(c2cc3c(c(-c4ccc(F)cc4)n2)OCC3(C)N)C(F)(F)F)ccc1OC(C)(C)CO (stereo not shown)	< 1000 nM
COc1cc(C(=O)NC[C@@](O)(c2cc3c(c(-c4ccc(F)cc4)n2)OC[C@@]3(C)NC(N)=O)C(F)(F)F)ccc1OC[C@@H](C)O	< 1000 nM
COc1cc(C(=O)NC[C@@](O)(c2cc3c(c(-c4ccc(F)cc4)n2)NCC[C@]3(C)N)C(F)(F)F)ccc1OC[C@@H](C)O	< 50000 nM
COc1cc(C(=O)NCC(O)(c2cc3c(c(-c4ccccc4)n2)OCC3(C)N)C(F)(F)F)ccc1OCCO (stereo not shown)	< 1000 nM
COc1cc(C(=O)NC[C@](O)(c2cc3c(c(-c4ccc(F)cc4)n2)OC[C@]3(N)C2CC2)C(F)(F)F)ccc1OC[C@@H](C)O (single isomer, unassigned)	< 50000 nM
CC(C)(N)c1cc(-c2ccc(F)cc2)nc([C@](O)(CNC(=O)c2ccc(OCCO)c(OC3CC3)c2)C(F)(F)F)c1	< 1000 nM
COc1cc(C(=O)NC[C@](O)(c2cc3c(c(-c4ccc(F)cc4)n2)NC[C@]3(C)N)C(F)(F)F)ccc1OCCO (single isomer, unassigned)	< 1000 nM
CC1(N)COc2c1cc(C(O)(CNC(=O)c1ccc3c(c1)OCCN3CCO)C(F)(F)F)nc2-c1ccc(F)cc1 (stereo not shown)	< 1000 nM
COc1cc(C(=O)NC[C@@](O)(c2cc3c(c(-c4ccc(F)cc4)n2)N(C)C[C@@]3(C)N)C(F)(F)F)ccc1OCCO	< 1000 nM

Q: Given CC1(N)COc2c1cc(C(O)(CNC(=O)c1ccc(OC3CC3)c(OC3CC3)c1)C(F)(F)F)nc2-c1ccc(F)cc1 (stereo not shown) , state its recorded IC50.
Ans: < 1000 nM

Q: Given COc1cc(OCCO)cc(C(=O)NC[C@@](O)(c2cc3c(c(-c4ccc(F)cc4)n2)OC[C@@]3(C)N)C(F)(F)F)c1 , state its recorded IC50.
Ans: < 1000 nM

Q: Given COc1cc(C(=O)NCC(O)(c2cc(C3(C)COCCN3)cc(-c3ccc(F)cc3)n2)C(F)(F)F)ccc1OCCO (stereo not shown) , state its recorded IC50.
Ans: < 1000 nM

Values were extracted from patent US10358453B2.
